All values here come from patent US9340521B2.

target: Human SGLT2 (hSGLT2) (Homo sapiens (Human), UniProt P31639); test: Inhibitory effects on human SGLT2 activities (14C-AMG uptake, sodium-dependent glucose transport assay); details: hSGLT2-expressing CHO cells, 37° C. for 2 h, single determinations
Sequence (P31639 whole entry): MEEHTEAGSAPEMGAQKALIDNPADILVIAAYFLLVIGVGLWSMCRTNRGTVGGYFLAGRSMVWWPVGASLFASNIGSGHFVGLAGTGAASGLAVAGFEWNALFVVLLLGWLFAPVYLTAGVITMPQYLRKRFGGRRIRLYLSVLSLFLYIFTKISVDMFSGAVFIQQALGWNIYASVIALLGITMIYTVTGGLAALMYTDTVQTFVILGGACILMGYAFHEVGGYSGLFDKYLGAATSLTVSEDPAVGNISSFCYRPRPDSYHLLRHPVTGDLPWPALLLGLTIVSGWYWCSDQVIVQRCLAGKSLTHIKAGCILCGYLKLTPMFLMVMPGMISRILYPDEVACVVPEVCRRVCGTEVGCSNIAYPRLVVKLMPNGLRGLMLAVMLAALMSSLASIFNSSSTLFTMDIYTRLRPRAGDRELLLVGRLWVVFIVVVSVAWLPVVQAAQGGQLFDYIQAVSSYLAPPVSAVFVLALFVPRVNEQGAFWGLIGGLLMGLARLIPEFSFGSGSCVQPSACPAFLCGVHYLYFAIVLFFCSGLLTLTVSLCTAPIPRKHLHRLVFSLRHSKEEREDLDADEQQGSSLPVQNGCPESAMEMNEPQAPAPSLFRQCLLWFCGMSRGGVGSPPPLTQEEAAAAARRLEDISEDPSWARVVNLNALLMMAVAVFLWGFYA
Collected IC50 values appear next to each entry.
property-name: IC50 (nM)

compound	property-name	observed-measurement
COc1ccc(Cc2cc([C@@H]3O[C@H](CO)[C@@H](O)[C@H](O)[C@H]3O)c3c(c2Cl)CCO3)cc1 [Compound E012]	IC50	1.7
CCc1ccc(Cc2cc([C@@H]3O[C@H](CO)[C@@H](O)[C@H](O)[C@H]3O)c3c(c2Br)CCC3)cc1 [Compound E003]	IC50	0.61
COc1ccc(Cc2cc([C@@H]3O[C@H](CO)[C@@H](O)[C@H](O)[C@H]3O)c3c(c2C)OCO3)cc1 [Compound E063]	IC50	1.6
Cc1ccc(Cc2cc([C@@H]3O[C@H](CO)[C@@H](O)[C@H](O)[C@H]3O)c3c(c2Cl)OCO3)cc1 [Compound E040]	IC50	1
